# reported pIC50; entries follow
target: KEAP1 Kelch (Homo sapiens); construct: Q14145; KEAP1; Kelch; 321; 609; pETM33; Genescript; made in house; host or cells: bacteria (E. coli BL21(DE3) gold is named only for the phage-selection preparations); test: FP competition, KEAP1 Kelch; assay type: binding
Sequence (Q14145 321-609): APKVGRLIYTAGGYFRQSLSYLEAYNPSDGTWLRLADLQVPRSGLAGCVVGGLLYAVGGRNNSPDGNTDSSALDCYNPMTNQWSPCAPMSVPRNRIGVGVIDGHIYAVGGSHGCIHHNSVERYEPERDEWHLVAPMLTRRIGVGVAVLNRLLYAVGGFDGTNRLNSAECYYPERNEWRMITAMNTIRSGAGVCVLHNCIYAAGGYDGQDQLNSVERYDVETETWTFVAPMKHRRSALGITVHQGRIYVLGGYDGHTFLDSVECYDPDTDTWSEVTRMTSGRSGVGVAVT
Where no end group is shown, it is not given here.
// returns pIC50 (minus log10 of molar concentration), number only

Reference set, count: 2
Ac-LIYVDKENGEPGTRVV-NH2 [PTTG1] :: 5.52
IDPSTGERFPVTDAVN-NH2 [PLEC 4459-4474] :: 5.21

**Query** What reported pIC50 corresponds to Ac-GIIDPSTGERFPVTDY-NH2 [PLEC 4457-4471] on KEAP1 Kelch (Homo sapiens)?
**Result** 5.82

**Query** Lab note: need pIC50 with KEAP1 Kelch (Homo sapiens) for entry YDPVTGEWKSLAKLPE-NH2 [KLHL24] , please look it up.
**Result** 4.10

**Query** Give KEAP1 Kelch (Homo sapiens) pIC50 for Ac-YDEETGEFLPIQPAQH-NH2 [NFE2L2 Wt]
**Result** 6.51

**Query** Record lookup: for KEAP1 Kelch (Homo sapiens), what pIC50 belongs to Ac-PPLPPPPLPPAPSLPY-NH2 [ATF5] ?
**Result** 2.35

**Query** Could you share what pIC50 was measured for Ac-YDEEKGEFLPIQPAQH-NH2 [NFE2L2 T80K] , tested on KEAP1 Kelch (Homo sapiens)?
**Result** 2.60

**Query** # value lookup — system KEAP1 Kelch (Homo sapiens), readout pIC50, item Ac-YDEKTGEFLPIQPAQH-NH2 [NFE2L2 E79K]
**Result** 2.78

**Query** Request body: readout pIC50, system KEAP1 Kelch (Homo sapiens), query Ac-YMQHLQEQQQQQMHLQ-NH2 [TREF1] . Return the value.
**Result** 3.31

**Query** Form field - read-out: pIC50; system: KEAP1 Kelch (Homo sapiens); submitted item: GFDAVTGEFTGMPEQW-NH2 [PAK1]
**Result** 4.36

**Query** Param readout= pIC50; system= KEAP1 Kelch (Homo sapiens); entry= "Ac-GIIDPSTGECFPVTDY-NH2" ; returns value.
**Result** 5.64

---

// values below are reported p3_HD2 confidence
tested on: immobilized GST-tagged bait protein domains; assay: ProP-PD phage selections (HD2 P8, sublibraries, HD2 P3, HD1 P8) with NGS and confidence level; type: binding, human; conditions: bait CRK_SH3_1_P46108_124_198; HD2 P3 library; confidence level (4 = High, 2-3 = Medium, 1 = Low)
The response must contain the number and no unit.

Example cases with answers are listed next.
RHLPPPLPSKTPPPPP :: 3
ETPGDGKPPALPPKQS :: 3
QQVPAPPLPAKKNLPT :: 4

Now look at this entry.
**Query** What value of p3_HD2 confidence has been reported for the following sequence? "LFCQNLPPPLPPKKYA"
**Result** 3

---

target: CLTC (Homo sapiens); construct: Q00610; CLTC; Clathrin propeller; 364; pETM33; Genescript; 6-His-GST; made in house; host or cells: Escherichia coli BL21(DE3) gold (stated for the bait preparation); assay: FP competition, CLTC; type: binding; settings: competitive FP assay
Sequence (Q00610 1-364): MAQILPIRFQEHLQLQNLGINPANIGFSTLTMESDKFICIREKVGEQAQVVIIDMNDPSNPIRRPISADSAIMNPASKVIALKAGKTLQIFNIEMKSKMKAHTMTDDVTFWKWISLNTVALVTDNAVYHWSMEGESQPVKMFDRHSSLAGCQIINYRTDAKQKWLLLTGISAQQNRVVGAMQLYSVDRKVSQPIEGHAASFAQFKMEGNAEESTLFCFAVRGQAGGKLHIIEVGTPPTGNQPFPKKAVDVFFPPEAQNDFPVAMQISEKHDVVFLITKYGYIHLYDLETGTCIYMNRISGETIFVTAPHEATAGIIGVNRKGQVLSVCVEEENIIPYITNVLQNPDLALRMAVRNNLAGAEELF
Where no end group is shown, it is not given here.
reported property: pIC50
FYI, pIC50 means -log10 of a concentration in mol per litre.

Ac-YVSGNLIDLYGNQGLP [MITF] :: 3.82
Ac-YVSGNLIDLCGNQGLP [MITF Y265C] :: 3.66

**Query** Can you share its pIC50? I mean this substance: Ac-LIDLPLIDFCDTPEAHY [GTSE1]
**Result** 4.01

---

tested on: immobilized GST-tagged bait protein domains; assay: ProP-PD phage selections (HD2 P8, sublibraries, HD2 P3, HD1 P8) with NGS and confidence level; format: binding, human; conditions: bait PABP-B_PABP__P11940_544_623; HD2 library; confidence level (1-4) of best matching selected peptide
reported property: best_confidence
Note: the reply should be a number with no unit written.

LSVNAPEFYPSGYSSS :: 3
ILSKSNLNPDAKEFIP :: 2
KSTLNPNAKEFNPRSF :: 2
VPNVHAAEFVPSFLRG :: 4

**Query** Which best_confidence value is on record for "SFNPDAQVFVPIGSQD" ?
**Result** 3

**Query** For the sequence shown here, "QLSPNAKEFVYNGGGS" , give the reported best_confidence.
**Result** 4

---

target: KPNA4 ARM (Homo sapiens, UniProt O00629); construct: O00629; KPNA4; Arm; 68; 487; pETM33/pETM41; Genescript; made in house; host or cells: bacteria (E. coli BL21(DE3) gold is named only for the phage-selection preparations); assay: FP saturation (direct binding of FITC probes), KPNA4 ARM; conditions: direct binding of FITC-labeled probe, saturation with KPNA4 ARM
Sequence (O00629 68-487): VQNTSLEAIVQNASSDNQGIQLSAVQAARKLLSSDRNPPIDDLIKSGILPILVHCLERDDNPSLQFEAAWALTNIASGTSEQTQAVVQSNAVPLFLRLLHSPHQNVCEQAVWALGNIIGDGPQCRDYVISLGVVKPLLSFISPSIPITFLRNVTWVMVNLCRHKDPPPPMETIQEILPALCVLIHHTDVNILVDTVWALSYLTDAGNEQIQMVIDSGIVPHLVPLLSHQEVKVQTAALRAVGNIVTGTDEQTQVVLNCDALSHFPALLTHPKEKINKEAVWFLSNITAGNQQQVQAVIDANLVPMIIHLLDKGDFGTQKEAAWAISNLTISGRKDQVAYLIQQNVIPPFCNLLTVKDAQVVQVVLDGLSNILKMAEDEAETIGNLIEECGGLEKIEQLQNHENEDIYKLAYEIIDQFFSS
Where no end group is shown, it is not given here. The star is where a group is joined. FITC = O=C1OC2(c3ccc(O)cc3Oc3cc(O)ccc32)c2ccc(NC(=S)*)cc21
reported property: Kd (nM)
Your answer should be a plain number; it is taken to be in nM.

**Query** Find the measured Kd: item {FITC}-PAAKRVKLD [Myc, FITC-labeled Myc 320-328 probe for the KPNA4 major pocket] , target or system KPNA4 ARM (Homo sapiens, UniProt O00629).
**Result** 30

---

tested on: immobilized GST-tagged bait protein domains; experiment: ProP-PD phage selections (HD2 P8, sublibraries, HD2 P3, HD1 P8) with NGS and confidence level; type: binding, human; conditions: bait PABP-B_PABP__P11940_544_623; HD2 library; confidence level (1-4) of best matching selected peptide
reported property: best_confidence
Lab note: jot the number down without any unit.

LNPNAEVWGAPVLHLE :: 4

**Query** Write down the reported best_confidence of "SALSPNAKEFIFPNMQ" , test system: immobilized GST-tagged bait protein domains.
**Result** 3

**Query** // lookup best_confidence | system=immobilized GST-tagged bait protein domains | key= "NPNAKEFVPGVKYGNI"
**Result** 2
